- Test system: Escherichia coli K12 C600 IAM 1264
- measurement.notes: Antibacterial activity, agar-dilution MIC, organism No. 6
- Type: cell-based
- condition.label: Escherichia coli, IAM1264; Organism No. 6, bouillon-agar; read-out: Minimum Inhibitory Concentration
value.type: MIC

>  <compound>
[C-]#[N+]C12CC3(/C=C/C(=O)Nc4ccc(C(=O)c5ccccc5)cc4)OC3C1O2 (stereo not shown)

>  <result>
> 200 µg/mL

$$$$
>  <compound>
[C-]#[N+]C12CC3(/C=C/C(=O)OCc4ccc([N+](=O)[O-])cc4)OC3C1O2 (stereo not shown)

>  <result>
50 µg/mL

$$$$
>  <compound>
[C-]#[N+]C12CC3(/C=C/C(=O)Nc4ccc(OCCC)cc4)OC3C1O2 (stereo not shown)

>  <result>
> 200 µg/mL

$$$$

Quick one: give measured MIC for [C-]#[N+]C12CC3(/C=C/C(=O)Nc4cc(C(=O)OC)ccc4OC)OC3C1O2 (stereo not shown)
> 200 µg/mL

Entry source: patent US4684664A
